Listing of entries alongside the reported EC50.
Target: Protein arginine N-methyltransferase 5 (Homo sapiens, UniProt O14744)
Sequence (O14744 whole entry): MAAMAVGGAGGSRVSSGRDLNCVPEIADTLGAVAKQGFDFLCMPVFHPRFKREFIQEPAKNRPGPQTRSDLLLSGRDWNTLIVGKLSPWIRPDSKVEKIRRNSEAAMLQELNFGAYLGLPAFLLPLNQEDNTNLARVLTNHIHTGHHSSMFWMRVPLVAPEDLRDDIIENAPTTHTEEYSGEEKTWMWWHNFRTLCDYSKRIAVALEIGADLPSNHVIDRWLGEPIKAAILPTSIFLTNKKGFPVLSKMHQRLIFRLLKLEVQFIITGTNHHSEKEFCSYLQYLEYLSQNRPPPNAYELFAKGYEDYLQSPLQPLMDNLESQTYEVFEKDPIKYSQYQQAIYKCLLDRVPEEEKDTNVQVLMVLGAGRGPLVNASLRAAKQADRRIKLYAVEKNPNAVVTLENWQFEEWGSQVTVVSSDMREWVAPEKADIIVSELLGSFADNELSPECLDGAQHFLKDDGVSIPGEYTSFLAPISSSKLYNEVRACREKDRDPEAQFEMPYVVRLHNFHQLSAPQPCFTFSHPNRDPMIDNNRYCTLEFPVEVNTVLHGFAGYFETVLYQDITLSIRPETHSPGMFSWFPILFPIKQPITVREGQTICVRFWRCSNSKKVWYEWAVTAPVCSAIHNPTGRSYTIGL
Experiment: Inhibition of PRMT5 in human Z138 cells assessed as decrease in di-methyl arginine levels after 96 hrs by Western blot method
quantity: EC50

• OC(CNc1cc(-c2ccc3ncn(C4CCNC4)c3c2)ccn1)CN1CCc2ccccc2C1 (stereo unspecified) = 101 to 1000 nM
• OC(CNc1cc(-c2ccc3ncn(C4CCOCC4)c3c2)ccn1)CN1CCc2ccccc2C1 (stereo unspecified) = 101 to 1000 nM
• N#CCc1cccc(-c2cccc(OCC(O)CN3CCc4ccccc4C3)c2)c1 (stereo unspecified) = 1000 to 10000 nM
• Cn1cnc2ccc(-c3ccnc(NCC(O)CN4CCc5ccccc5C4)c3)nc21 (stereo unspecified) = < 100 nM
• Cn1cncc1C(=O)Nc1cccc(OC[C@H](O)CN2CCc3ccccc3C2)c1 = 101 to 1000 nM
• O=C(NC[C@@H](O)CN1CCc2ccccc2C1)c1cccc(NC2CCOCC2)c1 = 101 to 1000 nM
• O=C(COc1cccc2cccnc12)NCC(O)CN1Cc2ccccc2C1 (stereo unspecified) = 1000 to 10000 nM
• CC1c2ccccc2CCN1CC(O)COc1cccc(-c2ccc3ncn(C)c3c2)c1 (stereo unspecified) = > 20000 nM
• CN1CCN(C(=O)Cn2cnc3ccc(-c4cccc(OCC(O)CN5CCc6ccccc6C5)c4)cc32)CC1 (stereo unspecified) = 101 to 1000 nM
• O=C(NCC(O)CN1CCc2ccccc2C1)c1cccc(CNC2CCOCC2)c1 (stereo unspecified) = 101 to 1000 nM
• CC(Oc1cccc(CNC2CCCC2)c1)C(O)CN1CCc2ccccc2C1 (stereo unspecified) = 101 to 1000 nM
• O=C(NCC(O)CN1CCc2ccccc2C1)c1ccc(-c2ccccn2)cc1 (stereo unspecified) = < 100 nM
• C[C@@H](Oc1cccc2cccnc12)C(=O)NC[C@@H](O)CN1CCc2ccccc2C1 = 101 to 1000 nM
• CN1CCC(n2ncc3cc(OCC(=O)NCC(O)CN4CCc5ccccc5C4)ccc32)C1 (stereo unspecified) = 101 to 1000 nM
• O=C(COc1ccccc1-c1cc[nH]n1)NC[C@H](O)CN1CCc2ccccc2C1 = 101 to 1000 nM
• OC(COc1cccc(-c2ccccc2F)c1)CN1CCc2ccccc2C1 (stereo unspecified) = 1000 to 10000 nM
• CC(=O)Nc1ccc(C(=O)NCC(O)CN2CCc3ccccc3C2)cc1 (stereo unspecified) = 101 to 1000 nM
• O=C(Cn1ccc2cnc(-c3cccc(OCC(O)CN4CCc5ccccc5C4)c3)nc21)N1CCOCC1 (stereo unspecified) = 101 to 1000 nM
• O=c1[nH]c2ccc(-c3cccc(OCC(O)CN4CCc5ccccc5C4)c3)cc2[nH]1 (stereo unspecified) = 101 to 20000 nM
• COc1ccc2cccc(OCC(=O)NC[C@H](O)CN3CCc4ccccc4C3)c2n1 = 101 to 1000 nM
• OC(COc1cccc(-c2ccc3ncn(-c4ccccc4)c3c2)c1)CN1CCc2ccccc2C1 (stereo unspecified) = 1000 to 10000 nM
• CN(C)CCOc1cccc(C(=O)NCC(O)CN2CCc3ccccc3C2)c1 (stereo unspecified) = 101 to 1000 nM
• COc1ccc(Cl)cc1-c1cccc(OCC(O)CN2CCc3ccccc3C2)c1 (stereo unspecified) = 1000 to 10000 nM
• CC(C)(C)OCc1cccc(-c2cccc(OCC(O)CN3CCc4ccccc4C3)c2)c1 (stereo unspecified) = 1000 to 10000 nM
• O=C(COc1cccc2cccnc12)NC[C@H](O)CN1Cc2ccccc2C1 = 101 to 1000 nM
• CC(=O)Nc1ccccc1OCC(=O)NCC(O)CN1CCc2ccccc2C1 (stereo unspecified) = 101 to 1000 nM
